Sourced from patent US11667602B2

assay: Human Plasma Protein Binding (Test B); type: in vitro ADME; conditions: fraction unbound (fu)
property: Test B Human Plasma Protein Binding (% free)

Task item: Read off the recorded Test B Human Plasma Protein Binding (% free) for COc1cc(F)c(O[C@H]2CC[C@@](C)(C(=O)O)CC2)cc1C(=O)Nc1cc2ccccc2cc1C(=O)NCC1(C)CCC1
Reply: 0.20

a: CCC(CC)CNC(=O)[C@H]1[C@@H]2CC[C@@H](C2)[C@H]1NC(=O)c1cc(OC2CCC(C)(C(=O)O)CC2)c(F)cc1OC (stereo partly shown)
b: COc1cc(F)c(O[C@H]2CC[C@@](C)(C(=O)O)CC2)cc1C(=O)N[C@@H]1CCC[C@@H]1C(=O)NCC1(CF)CC1
Task item: Which entry has a larger number for Test B Human Plasma Protein Binding (% free), a or b ? Answer with the label corresponding to your selection.
Reply: b

* * *

Molecular target: human RXFP1 (Homo sapiens)
Sequence (Q9HBX9 1-757): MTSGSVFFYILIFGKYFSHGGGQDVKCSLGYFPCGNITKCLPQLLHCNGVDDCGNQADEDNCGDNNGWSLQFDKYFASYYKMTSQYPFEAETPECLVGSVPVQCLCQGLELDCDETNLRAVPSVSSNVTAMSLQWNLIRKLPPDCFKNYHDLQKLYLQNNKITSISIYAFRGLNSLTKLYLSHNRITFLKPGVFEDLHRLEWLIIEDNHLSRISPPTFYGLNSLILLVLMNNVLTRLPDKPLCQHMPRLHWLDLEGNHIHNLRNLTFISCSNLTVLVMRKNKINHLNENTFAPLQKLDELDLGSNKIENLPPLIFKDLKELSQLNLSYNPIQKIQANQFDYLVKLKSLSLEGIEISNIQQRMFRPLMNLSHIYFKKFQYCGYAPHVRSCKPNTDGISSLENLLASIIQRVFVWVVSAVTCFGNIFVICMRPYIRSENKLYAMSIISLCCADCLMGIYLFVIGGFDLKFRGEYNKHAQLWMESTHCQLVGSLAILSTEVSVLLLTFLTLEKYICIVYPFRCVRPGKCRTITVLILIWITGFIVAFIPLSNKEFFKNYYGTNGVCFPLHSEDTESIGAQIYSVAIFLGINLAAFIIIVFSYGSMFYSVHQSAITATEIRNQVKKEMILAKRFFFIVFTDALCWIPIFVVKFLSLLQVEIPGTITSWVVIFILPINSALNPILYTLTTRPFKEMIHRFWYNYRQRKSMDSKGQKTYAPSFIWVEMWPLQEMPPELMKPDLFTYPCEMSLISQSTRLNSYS
Test: RXFP1 Hu cAMP (Test A)
Type: cell-based
Set-up: expressed in transfected cells; host or cells: Jump-In T-REx CHO-K1 cells (ThermoFisher), induced with 10 ng/ml doxycycline for 24 h
Details: RXFP1 Hu cAMP; read-out: Test A EC50
property: EC50 (nM)

Task item: Retrieve EC50 on human RXFP1 (Homo sapiens); query COc1cc(F)c(O[C@H]2CC[C@@](CO)(C(=O)O)CC2)cc1C(=O)NC1C2CCC(O2)C1C(=O)NCC1(C)CCC1 (single isomer, unassigned)
Reply: 140

P: COc1cc(F)c(O[C@H]2CC[C@@](C)(C(=O)O)CC2)cc1C(=O)N[C@@H]1[C@H]2CC[C@H](C2)[C@@H]1C(=O)NCC1(CF)CC1
Q: COc1ccc(Oc2cccc(C(=O)O)c2)cc1C(=O)N[C@H]1[C@@H](C(=O)Nc2cccc(S(=O)(=O)C(F)(F)F)c2)[C@@H]2C=C[C@H]1C2 (racemic)
R: COc1cc(F)c(O[C@H]2CC[C@@](C)(C(=O)O)CC2)cc1C(=O)N[C@@H]1CCC[C@@H]1C(=O)N[C@H](C)C(C)(C)C
S: COc1cc(F)c(O[C@H]2CC[C@@H](C(N)=O)CC2)cc1C(=O)N[C@H]1[C@@H](C(=O)Nc2ccc(F)c(C(F)(F)F)c2)[C@@H]2C=C[C@H]1C2
T: COc1cc(F)c(O[C@H]2CC[C@@](C)(C(=O)O)CC2)cc1C(=O)N[C@H]1[C@@H](C(=O)NCC2(C)CCC2)[C@@H]2C=C[C@H]1C2
Task item: # rank_down: sort by EC50, max first Put the labels in the order asked and list them.
Reply: Q, P, R, S, T

P: CCOCC1(CNC(=O)[C@H]2[C@@H]3CC[C@@H](C3)[C@H]2NC(=O)c2cc(O[C@H]3CC[C@@](C)(C(=O)O)CC3)c(C#N)cc2OC)CCC1
Q: COc1cc(F)c(O[C@H]2CC[C@@](C)(C(=O)O)CC2)cc1C(=O)N[C@H]1[C@@H](C(=O)NCC2(C)CCC2)[C@@H]2CC[C@H]1O2 (racemic)
Task item: Which value of EC50 is smaller, the one for P or the one for Q ? Answer with the label corresponding to your selection.
Reply: P
